method_description: acute toxicity (LD50) in adult laboratory rats
Format: in vivo
condition_description: rat, in vivo, po, adult rats, observation period of 14 days
Description: The acute toxicities of the compounds (LD50) were determined in adult laboratory rats from the percentage of animals which died after administration of varying doses within an observation period of 14 days [see J. Pharmacol. exper. Therap. 96, 99 1949)].
measured_metric: LD50 at 336 h

O=C(O)CCCc1ccc(-c2ccccc2Cl)cc1 [F]	> 1000 mg/kg

Entry O=C(O)CCC(O)c1ccc(-c2ccccc2[N+](=O)[O-])cc1 (stereo not shown) [A] — recorded LD50 at 336 h = > 500 mg/kg

----------
Tested on: adult laboratory rats
method_description: acute toxicity (LD50) in adult laboratory rats
Format: in vivo
condition_description: p.o., rats, printed in parentheses under the LD50 bound; observation period of 14 days
measured_metric: animals died

Would you please look over these solved cases?
O=C(O)CCCc1ccc(-c2ccccc2F)cc1	0 out of 10
O=C(O)CCCc1ccc(-c2ccccc2Cl)cc1	2 out of 10
O=C(O)CCCc1ccc(-c2ccccc2[N+](=O)[O-])cc1	3 out of 10
O=C(O)CCCc1ccc(-c2ccc([N+](=O)[O-])cc2)cc1	0 out of 10
O=C(O)CCC(O)c1ccc(-c2ccccc2Cl)cc1 (stereo not drawn)	1 out of 10

Then this molecule:
Entry O=C(O)CCC(O)c1ccc(-c2ccccc2[N+](=O)[O-])cc1 (stereo not drawn) — recorded animals died = 0 out of 5

----------
method_description: acute toxicity (LD50) in adult laboratory rats
Format: in vivo
condition_description: rat, in vivo, po, adult rats, observation period of 14 days
measured_metric: LD50 at 336 h

Would you please look over these solved cases?
O=C(O)CCCc1ccc(-c2ccc([N+](=O)[O-])cc2)cc1	> 1000 mg/kg
O=C(O)CCCc1ccc(-c2ccccc2F)cc1	> 500 mg/kg
O=C(O)CCC(O)c1ccc(-c2ccccc2Cl)cc1 (centres unmarked)	> 1000 mg/kg
O=C(O)CCCc1ccc(-c2ccccc2[N+](=O)[O-])cc1	> 1000 mg/kg

Then this molecule:
Entry Nc1ccccc1-c1ccc(C(O)CCC(=O)O)cc1 (centres unmarked) — recorded LD50 at 336 h = 1340 mg/kg
